All figures here come from ChEMBL document CHEMBL4619729.

# system: Histamine H3 receptor (Homo sapiens, UniProt Q9Y5N1)
# Sequence (Q9Y5N1 whole entry): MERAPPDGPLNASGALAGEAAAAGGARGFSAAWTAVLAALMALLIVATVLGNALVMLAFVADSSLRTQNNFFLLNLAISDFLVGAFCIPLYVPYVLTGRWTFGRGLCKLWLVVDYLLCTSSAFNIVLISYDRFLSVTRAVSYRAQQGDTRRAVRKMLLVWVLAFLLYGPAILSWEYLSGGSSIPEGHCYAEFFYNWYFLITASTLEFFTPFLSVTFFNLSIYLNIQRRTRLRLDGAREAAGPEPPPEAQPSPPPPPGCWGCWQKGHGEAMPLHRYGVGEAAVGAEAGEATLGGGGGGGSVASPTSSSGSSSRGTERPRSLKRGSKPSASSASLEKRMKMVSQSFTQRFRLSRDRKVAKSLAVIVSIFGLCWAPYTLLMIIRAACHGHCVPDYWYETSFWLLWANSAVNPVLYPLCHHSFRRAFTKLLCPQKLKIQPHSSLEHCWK
# protocol.details: Binding affinity to H3R (unknown origin)
measured.parameter: Ki (nM)
Only the number, expressed in nM, is required.

Ki in this record for "CC(C)(C)c1ccc(OCCCCCCN2CCCCCC2)cc1" : 829

====

# system: Histamine H3 receptor (Homo sapiens)
# protocol.details: Displacement of [3H]-N-alpha-methylhistamine from human recombinant full length H3R expressed in HEK293 cell membranes by Microbeta scintillation counting method
measured.parameter: Ki (nM)
Only the number, expressed in nM, is required.

Ki in this record for "O=C(c1ccccc1)c1cccc(OCCCCCCN2CCCCCC2)c1" : 41
